Known logP of a selection of molecules

>>> df
                                   molecule  result
0  CCOc1ccc(C(c2ccc(C)cc2)C(C)C)cc1 (stereo not given)    3.55

Query string: Fill in: logP of `CCOc1ccc(C(c2ccc(OCC)cc2)C(C)(C)Cl)cc1` is ___
Result string: 3.25

Query string: Fill in: logP of CCOc1ccc(C(c2ccc(OCC)cc2)C(C)Cl)cc1 (stereo not given) is ___
Result string: 3.58

Query string: Fill in: logP of `CCOc1ccc(C(c2ccc(OCC)cc2)C(C)(C)C)cc1` is ___
Result string: 3.16

Query string: Fill in: logP of `CCOc1ccc(C(c2ccc(OCC)cc2)C(C)C)cc1` is ___
Result string: 3.61

Sourced from the SangsterLogP compilation
